# test_target: T1, murine PILRA, ectopically expressed on 293 cells (murine, UniProt Q2YFS3 32-302)
# T1 construct: also called mA
# T1 sequence (Q2YFS3 32-302): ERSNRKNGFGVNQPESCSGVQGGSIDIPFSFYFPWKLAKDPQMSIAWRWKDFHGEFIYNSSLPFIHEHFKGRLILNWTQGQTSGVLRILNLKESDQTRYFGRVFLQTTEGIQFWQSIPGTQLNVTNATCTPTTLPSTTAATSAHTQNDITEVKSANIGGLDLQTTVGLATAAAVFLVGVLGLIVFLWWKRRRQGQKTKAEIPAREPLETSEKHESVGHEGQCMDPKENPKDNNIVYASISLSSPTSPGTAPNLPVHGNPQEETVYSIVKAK
# assay_method_text: flow cytometry, 293 cells expressing target
metric_name: binding result

A14 (antibody, V domains shown, phage campaign) VH: QVQLVQSGAEVKKPGASVKVSCKASGYTFTSYYMYWVRQAPGQGLEWMGWMNPNSGNTGFAQKFQGRVTMTRDTSTSTVYMELSSLRSEDTAVYYCASGYYDSWSGETDYGMDVWGQGTTVTVSS VL: DIQMTQSPSSLSASVGDRVTITCRASQSISSYLNWYQQKPGKAPKLLIYDASTLESGVPSRFSGSGSGTDFTLTISSLQPEDFATYYCQQSYKTPYTFGQGTKLEIK = no binding
E2 (antibody, V domains shown, second hybridoma campaign) VH: EVQLQESGPSLVKPSQTLSLTCSVTGDSITSGYWNWIRKFPGDKLEYMGYISYTGTTYYNPSLKSRVSITRDTSKNQYYLQLHSVTTEDTATYYCARYPYGNFPFDYWGQGTTLTVSS VL: SIVMTQTPKFLLVSAGDRVTITCKASQSVRNDVAWYQQRPGQSPKLLIFYASSRYIGAPDRFTGSGYGTDFTFTISTVQAEDLAVYFCQQDYSSPYTFGGGTTLEIK = no binding
